tgt: Mitogen-activated protein kinase kinase kinase 3 (Homo sapiens) (UniProt Q99759)
Sequence (Q99759 whole entry, looked up): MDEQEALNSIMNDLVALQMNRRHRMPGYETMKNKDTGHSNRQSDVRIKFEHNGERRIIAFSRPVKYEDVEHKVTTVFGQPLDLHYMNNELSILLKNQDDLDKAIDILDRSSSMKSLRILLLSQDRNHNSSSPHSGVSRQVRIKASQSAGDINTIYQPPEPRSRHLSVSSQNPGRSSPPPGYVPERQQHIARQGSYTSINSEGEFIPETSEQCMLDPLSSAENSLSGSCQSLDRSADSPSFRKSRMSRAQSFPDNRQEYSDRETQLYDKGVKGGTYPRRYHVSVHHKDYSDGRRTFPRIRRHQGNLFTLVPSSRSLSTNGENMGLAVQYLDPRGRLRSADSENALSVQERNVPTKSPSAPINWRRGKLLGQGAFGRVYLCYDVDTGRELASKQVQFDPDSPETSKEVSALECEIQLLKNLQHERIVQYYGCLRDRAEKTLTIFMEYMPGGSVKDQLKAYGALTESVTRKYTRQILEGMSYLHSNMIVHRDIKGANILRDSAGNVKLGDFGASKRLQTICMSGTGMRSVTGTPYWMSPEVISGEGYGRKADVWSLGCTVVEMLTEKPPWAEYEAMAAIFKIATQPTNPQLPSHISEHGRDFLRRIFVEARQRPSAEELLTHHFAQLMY
protocolText: MEKK3 PB1-MEK5 interaction blockers – biochemical, bead multiplex flow cytometry, wildtype, dose response (AID 1896)
testConditions: bead-based multiplex flow cytometry, MEK5-MEKK3 PB1 binding
The source made the active and inactive calls. No rule for the calls is given here.
Log the outcome using a class from yes (1) = active, no (0) = inactive

[
  {
    "compound": "C#CCOCCOCCOCCNc1nc(N2CCN(C(=O)[C@H]([C@@H](C)CC)n3cc([C@@H](N)CC(C)C)nn3)CC2)nc(N2CCN(C(=O)[C@H](Cc3cc4ccccc4[nH]3)n3cc([C@@H](N)Cc4ccc(O)cc4)nn3)CC2)n1",
    "tgt": "Mitogen-activated protein kinase kinase kinase 3 (Homo sapiens) (UniProt Q99759)",
    "group": "no (0)"
  },
  {
    "compound": "O=C1c2ccccc2-c2onc3ccc(NCc4ccco4)c1c23",
    "tgt": "Mitogen-activated protein kinase kinase kinase 3 (Homo sapiens) (UniProt Q99759)",
    "group": "no (0)"
  },
  {
    "compound": "CCC(=C/c1sc2ccc3ccccc3c2[n+]1C)/C=C1\\Sc2ccc3ccccc3c2N1C",
    "tgt": "Mitogen-activated protein kinase kinase kinase 3 (Homo sapiens) (UniProt Q99759)",
    "group": "yes (1)"
  }
]

Please let me know the test result on file for "O=C(NNc1c2ccccc2nc2ccccc12)c1cc2ccccc2cc1O" .
no (0)

Param item: "CCCCCCCCCCOC(=O)Cn1c(COc2ccccc2C)[n+](C)c2ccccc21"
no (0)

And for "Cc1ccc(-c2c[n+](CC(=O)Nc3nc(-c4ccc(F)cc4)cs3)c3n2CCC3)cc1" ?
no (0)

Again, but for CN1CCN(CC(O)COc2ccc(C34CC5CC(CC(C5)C3)C4)cc2)CC1 (stereo not drawn)
no (0)

What do we get for "CCN(CC)CCOC(=O)c1ccc(N/C=C(/C#N)c2nc(-c3cccc(OC)c3)cs2)cc1" ?
no (0)

###

tgt: Mitogen-activated protein kinase kinase kinase 3 (Homo sapiens) (UniProt Q99759)
protocolText: MEKK3 PB1-MEK5 interaction blockers – biochemical, bead multiplex flow cytometry, wildtype, dose response (AID 1896)
testConditions: bead-based multiplex flow cytometry, MEK5-MEKK3 PB1 binding
Active and inactive are the calls of the source. How the calls were made is not given here.
Reply using exactly one outcome from active, inactive

# outcome recorded in this test, key = COc1ccc(NC(=O)N(Cc2cc3cc(C)ccc3[nH]c2=O)CC2CCCO2)cc1 (centres undefined)
inactive

How about this molecule: "CCOC(=O)N1CCN(c2c(N3CCN(c4ccccc4F)CC3)c(=O)c2=O)CC1"
inactive

And "CCOc1cccc2sc(N(CCCN(C)C)C(=O)c3ccc(S(=O)(=O)N4CCc5ccccc5C4)cc3)nc12" ?
inactive

For "COc1ccc2[nH]c3c(C)c4ccncc4c(C)c3c2c1" then?
inactive

Now the same for "COc1ccc2nc(C)cc(N/N=C/c3ccc(F)cc3)c2c1"
active

Then what about the molecule "CCN1CCN(Cc2ccc(NC(=O)c3cc(NC(=O)c4cncc(-c5cccs5)c4)cc(OC)c3)cc2C(F)(F)F)CC1" ?
inactive

Another molecule to check: C#CCOCCOCCOCCNc1nc(N2CCN(C(=O)[C@H](Cc3cc4ccccc4[nH]3)n3cc([C@@H](N)C(C)CC)nn3)CC2)nc(N2CCN(C(=O)[C@H](CCCCN)n3cc([C@@H](N)CC(C)C)nn3)CC2)n1 (some centres undefined)
inactive

Subsequent entry: "NC(N)=N/N=C/c1ccc(OCc2ccccc2Cl)cc1"
inactive

Moving on to the next molecule: "CN(C)CCCNc1cc(C(C)(C)C)nc2c(-c3ccc(Cl)cc3)cnn12"
inactive

Next: "CCN1CCN(Cc2ccc(NC(=O)c3cc(NC(=O)c4cnn(-c5ccccc5)c4N)cc(OC)c3)cc2C(F)(F)F)CC1"
inactive

And what about the molecule "CCN1C(c2ccccc2)=C(c2ccccc2)S/C1=C\C=C1/SC(=S)N(C)C1=O" ?
active

How about "CCC(/C=C1\Sc2ccc(OC)cc2N1CCO)=C\c1sc2ccc(OC)cc2[n+]1CCO" ?
active

Entry "CCN(CC)CCOC(=O)c1ccc(N/C=C(/C#N)c2nc(-c3ccc4c(c3)OCO4)cs2)cc1" please
inactive

For "CC[C@@H](C)[C@H](CNC)NC[C@@H](Cc1cccc2ccccc12)NCCc1cccc(C(F)(F)F)c1" then?
inactive

What would you report for "C#CCOCCOCCOCCNc1nc(N2CCN(C(=O)[C@H](Cc3ccc(O)cc3)n3cc([C@@H](N)CC(C)C)nn3)CC2)nc(N2CCN(C(=O)[C@H](Cc3ccc(O)cc3)n3cc([C@@H](N)CC(C)C)nn3)CC2)n1" ?
inactive

Subsequent entry: "Cc1cc2ccccc2n1CCNC(=O)c1ccccc1"
active

// same read-out, input: "Nc1ccc2nc(-c3ccc(-c4nc5ccc(N)cc5[nH]4)cc3)[nH]c2c1"
inactive

// next record C#CCOCCOCCOCCNc1nc(N2CCN(C(=O)C(Cc3ccc(O)cc3)n3cc(C(N)CC(C)C)nn3)CC2)nc(N2CCN(C(=O)C(Cc3cc4ccccc4[nH]3)n3cc(C(N)C(C)CC)nn3)CC2)n1 (centres undefined)
inactive

Then what about the molecule "O=C(c1cc(COc2c(F)cccc2F)on1)N1C[C@H]2CC[C@H]1C2" ?
inactive

###

tgt: Mitogen-activated protein kinase kinase kinase 3 (Homo sapiens) (UniProt Q99759)
protocolText: MEKK3 PB1-MEK5 interaction blockers – biochemical, bead multiplex flow cytometry, wildtype, dose response (AID 1896)
testConditions: bead-based multiplex flow cytometry, MEK5-MEKK3 PB1 binding
Active and inactive are the calls of the source. No rule for the calls is given here.
measurementType: EC50

Solved entries:
[
  {
    "compound": "CCOC(=O)c1c(-c2ccc(-c3ccccc3)cc2)csc1NC(=O)CNCCN(C)C",
    "tgt": "Mitogen-activated protein kinase kinase kinase 3 (Homo sapiens) (UniProt Q99759)",
    "EC50": "> 30 µM (inactive)"
  },
  {
    "compound": "O=C1c2ccccc2-c2onc3ccc(NCCCn4ccnc4)c1c23",
    "tgt": "Mitogen-activated protein kinase kinase kinase 3 (Homo sapiens) (UniProt Q99759)",
    "EC50": "> 30 µM (inactive)"
  },
  {
    "compound": "Cc1ccc(-n2cc(CNCCCn3ccnc3C)c(-c3ccc(F)cc3)n2)cc1",
    "tgt": "Mitogen-activated protein kinase kinase kinase 3 (Homo sapiens) (UniProt Q99759)",
    "EC50": "> 30 µM (inactive)"
  },
  {
    "compound": "CC[n+]1c(/C=C/C=C/N(C(C)=O)c2ccccc2)sc2ccccc21",
    "tgt": "Mitogen-activated protein kinase kinase kinase 3 (Homo sapiens) (UniProt Q99759)",
    "EC50": "> 30 µM (inactive)"
  },
  {
    "compound": "COc1ccc(CSc2n[nH]c(C)n2)cc1[N+](=O)[O-]",
    "tgt": "Mitogen-activated protein kinase kinase kinase 3 (Homo sapiens) (UniProt Q99759)",
    "EC50": "> 30 µM (inactive)"
  }
]

Now let's try a different one.
I would be grateful if you could share the reported EC50 for "CCCCCCCCCCOC(=O)Cn1c(COc2cccc(C)c2)[n+](C)c2ccccc21" .
> 30 µM (inactive)

###

tgt: Mitogen-activated protein kinase kinase kinase 3 (Homo sapiens)
protocolText: MEKK3 PB1-MEK5 interaction blockers – biochemical, bead multiplex flow cytometry, wildtype, dose response (AID 1896)
testConditions: bead-based multiplex flow cytometry, MEK5-MEKK3 PB1 binding
Activity calls are given as the source filed them. No rule for the calls is given here.
Mark one answer only. Choices: class 1 for active, class 0 for inactive

Reference set (5 entries):
[
  {
    "compound": "C#CCOCCOCCOCCNc1nc(N2CCN(C(=O)C([C@@H](C)CC)n3cc(C(N)COC(=O)C(F)(F)F)nn3)CC2)nc(N2CCN(C(=O)[C@H](CCCCN)n3cc(C(N)[C@H](C)CC)nn3)CC2)n1 (stereo partly drawn)",
    "group": "class 0"
  },
  {
    "compound": "COc1ccccc1N1CCN(S(=O)(=O)c2ccc(Cl)s2)CC1",
    "group": "class 0"
  },
  {
    "compound": "CCc1ccc(Nc2n[n+](-c3ccccc3)c(-c3ccc(OCc4ccccc4)cc3)s2)cc1",
    "group": "class 0"
  },
  {
    "compound": "CN1CCN(c2ccc(NC(=O)c3ccc(-c4ccc(Cl)cc4)o3)cc2)CC1",
    "group": "class 1"
  },
  {
    "compound": "Nc1ccc(N)c(C(=O)O)c1",
    "group": "class 1"
  }
]

Turning to the following compound.
Would you mind telling me which call this test gave "CN1C(=O)/C(=C\c2ccc(-c3ccccc3)o2)SC1=S" ?
class 1

###

tgt: Mitogen-activated protein kinase kinase kinase 3 (Homo sapiens) (UniProt Q99759)
protocolText: MEKK3 PB1-MEK5 interaction blockers – biochemical, bead multiplex flow cytometry, wildtype, dose response (AID 1896)
testConditions: bead-based multiplex flow cytometry, MEK5-MEKK3 PB1 binding
Activity calls are given as the source filed them. No rule for the calls is given here.
Field 'call' accepts active, inactive

// below: answered molecules
[
  {
    "molecule": "CCN1/C(=C/c2ccc3cc(C)ccc3[n+]2CC)Sc2cc(C)c(C)cc21",
    "tgt": "Mitogen-activated protein kinase kinase kinase 3 (Homo sapiens) (UniProt Q99759)",
    "group": "active"
  },
  {
    "molecule": "CCc1ccc(-c2nn(-c3ccccc3)cc2CSC(=N)N)cc1",
    "tgt": "Mitogen-activated protein kinase kinase kinase 3 (Homo sapiens) (UniProt Q99759)",
    "group": "inactive"
  },
  {
    "molecule": "CCCCCCCCCCOC(=O)Cn1c(COc2ccccc2)[n+](C)c2ccccc21",
    "tgt": "Mitogen-activated protein kinase kinase kinase 3 (Homo sapiens) (UniProt Q99759)",
    "group": "inactive"
  },
  {
    "molecule": "C#CCOCCOCCOCCNc1nc(N2CCN(C(=O)[C@H]([C@@H](C)CC)n3cc([C@@H](N)CO)nn3)CC2)nc(N2CCN(C(=O)[C@H](Cc3cc4ccccc4[nH]3)n3cc([C@@H](N)C(C)CC)nn3)CC2)n1 (some centres not stated)",
    "tgt": "Mitogen-activated protein kinase kinase kinase 3 (Homo sapiens) (UniProt Q99759)",
    "group": "inactive"
  }
]

Recorded test call requested for "CN(C)CCCN(C(=O)c1ccc2c(c1)CCCC2)c1nc2ccc(Cl)cc2s1"
inactive

Please give the result for "COc1ccc(-c2[nH]ncc2CN2CCCCCCC2)c(OC)c1" too.
inactive

Moving on to the next molecule: "Cc1ccc(CN2CCSc3ccc(C(=O)NC4CCN(Cc5ccccc5)CC4)cc32)cc1"
inactive

Similarly, "CC(C)n1cc(CN2CCC(C(=O)Nc3cccc(-c4cccc(Cl)c4)c3)CC2)cn1" ?
inactive

Same lookup for "COc1ccc(Cn2cc3c(-c4ccc(F)cc4)nnc-3c3cc(OC)c(OC)cc32)cc1" , please.
inactive

Next molecule up: "CCNc1ccc2noc3c2c1C(=O)c1ccccc1-3"
active

What about "OCCCCNCc1ccc(OCc2ccc(Cl)cc2Cl)cc1" ?
inactive

Moving on to the next molecule: "COCCNC(=O)CN(c1cc(Cl)ccc1OC)S(=O)(=O)c1ccc(C)c([N+](=O)[O-])c1"
inactive

What do we get for "CCCCCCCCCCCCCCCC[n+]1cccc2ccccc21" ?
inactive

And what about the molecule "COc1ccc(-c2cc(C#N)nc(N3CCNCC3)n2)cc1" ?
inactive

Field entry: "CC(=O)Nc1cccc2c1C(=O)N(c1cccc(C)c1)C2=O"
inactive

Here is the next molecule: "CCCCCCCCCCCCCCCC[n+]1ccc(/C=N/O)cc1"
inactive

Repeat for the following molecule: "CCCOc1ccc2c(c1)C(=NN=C(N)N)c1cc(OCCC)ccc1-2"
inactive
